Entry source: ChEMBL document CHEMBL4190320

biological target: Potassium voltage-gated channel subfamily A member 5 (Homo sapiens, UniProt P22460); test: Inhibition of human Kv1.5 expressed in CHO cells at -80 mV holding potential by whole cell automated patch clamp method
Sequence (P22460 whole entry): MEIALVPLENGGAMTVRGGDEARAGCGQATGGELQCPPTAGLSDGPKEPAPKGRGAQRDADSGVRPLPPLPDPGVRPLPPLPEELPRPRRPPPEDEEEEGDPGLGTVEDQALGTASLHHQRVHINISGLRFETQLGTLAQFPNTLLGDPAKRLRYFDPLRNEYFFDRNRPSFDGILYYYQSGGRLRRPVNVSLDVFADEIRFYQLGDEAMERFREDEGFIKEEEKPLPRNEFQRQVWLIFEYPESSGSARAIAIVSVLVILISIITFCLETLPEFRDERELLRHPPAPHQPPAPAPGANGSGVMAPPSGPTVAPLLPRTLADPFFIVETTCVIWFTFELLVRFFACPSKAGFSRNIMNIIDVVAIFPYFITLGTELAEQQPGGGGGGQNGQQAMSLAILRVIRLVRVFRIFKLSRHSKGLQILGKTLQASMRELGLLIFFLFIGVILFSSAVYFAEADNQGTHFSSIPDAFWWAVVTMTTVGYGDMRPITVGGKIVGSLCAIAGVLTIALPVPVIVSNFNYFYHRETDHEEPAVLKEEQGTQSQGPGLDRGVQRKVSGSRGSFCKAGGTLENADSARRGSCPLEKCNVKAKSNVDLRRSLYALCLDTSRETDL
pIC50: −log10 of the molar value.
pIC50 by entry:
Observed Property: pIC50

>>> print(df.to_string())
                                    molecule                         system_under_test  observed_property  obs_value
 0  Nc1nc(/C=C/CNC(=O)c2cc3cc(F)ccc3[nH]2)c[nH]1  Potassium voltage-gated channel subfamily A member 5 (Homo sapiens, UniProt P22460)              pIC50     < 4.52
 1  Nc1nc(/C=C/CNC(=O)c2cc3ccccc3[nH]2)c[nH]1  Potassium voltage-gated channel subfamily A member 5 (Homo sapiens, UniProt P22460)              pIC50     < 4.52
 2  Nc1nc(/C=C/CNC(=O)c2cc(Cl)c(Cl)[nH]2)c[nH]1  Potassium voltage-gated channel subfamily A member 5 (Homo sapiens, UniProt P22460)              pIC50       5.21
 3  Cc1[nH]c(C(=O)NC/C=C/c2c[nH]c(N)n2)cc1Br  Potassium voltage-gated channel subfamily A member 5 (Homo sapiens, UniProt P22460)              pIC50     < 4.52
 4  Nc1ncc(/C=C/CNC(=O)c2cc(Br)c(Br)[nH]2)[nH]1 [OROIDIN]  Potassium voltage-gated channel subfamily A member 5 (Homo sapiens, UniProt P22460)              pIC50       4.80
 5     O=c1ccc2c(OCCCCOc3ccccc3)c3ccoc3cc2o1  Potassium voltage-gated channel subfamily A member 5 (Homo sapiens, UniProt P22460)              pIC50       7.06
 6  Nc1nc(/C=C/CNC(=O)c2cc3cc(Cl)ccc3[nH]2)c[nH]1  Potassium voltage-gated channel subfamily A member 5 (Homo sapiens, UniProt P22460)              pIC50     < 4.52
 7   Nc1nc(/C=C/CNC(=O)c2cc(Br)c[nH]2)c[nH]1  Potassium voltage-gated channel subfamily A member 5 (Homo sapiens, UniProt P22460)              pIC50       5.12
 8  Cc1[nH]c(C(=O)NC/C=C/c2c[nH]c(N)n2)c(Br)c1Br  Potassium voltage-gated channel subfamily A member 5 (Homo sapiens, UniProt P22460)              pIC50     < 4.52
 9  Cc1[nH]c(C(=O)NC/C=C/c2c[nH]c(N)n2)cc1Cl  Potassium voltage-gated channel subfamily A member 5 (Homo sapiens, UniProt P22460)              pIC50     < 4.52
10  Nc1ncc(/C=C/CNC(=O)c2ccc[nH]2)[nH]1 [CLATHRODIN]  Potassium voltage-gated channel subfamily A member 5 (Homo sapiens, UniProt P22460)              pIC50     < 4.52

* * *

target: Potassium voltage-gated channel subfamily A member 5 (Rattus norvegicus); assay: Inhibition of rat Kv1.5 expressed in Xenopus laevis oocytes at 1 uM at -90 mV holding potential by two-electrode voltage clamp assay relative to control; assay type: cell-based
Activity calls are given as the source filed them. No cut-off for these calls is given here.
Observed Property: inhibition

In [3]: df
Out[3]:
                                   compound  observed_property  obs_value
0       Nc1ncc(/C=C/CNC(=O)c2ccc[nH]2)[nH]1         inhibition   inactive
1  Cc1[nH]c(C(=O)NC/C=C/c2c[nH]c(N)n2)c(Br)c1Br         inhibition   inactive
2  Nc1nc(CCCNC(=O)C2Cc3ccccc3N2)c[nH]1 (stereo unspecified)         inhibition   inactive
3         Nc1nc(/C=C/CNC(=O)c2cccnc2)c[nH]1         inhibition   inactive
4  Nc1nc(/C=C/CNC(=O)c2cc(Cl)c(Cl)[nH]2)c[nH]1         inhibition        62%
5  Nc1nc(/C=C/CNC(=O)c2cc3cc(Cl)ccc3[nH]2)c[nH]1         inhibition   inactive
